meta.source: ChEMBL document CHEMBL5528028

- System: Escherichia coli
- procedureSummary: Antibacterial activity against Escherichia coli ATCC 25922 assessed growth inhibition by micro broth dilution method
- Format: functional
parameter: MIC (µg/mL)
Give just the number in µg/mL; leave the unit off.

# count of solved cases: 3
compound: CCOC(=O)c1cn(CCN2CCOCC2)c2cc([C-](C#N)C(=O)OCC)c(F)cc2c1=O.[Na+] (stereo not drawn)
MIC, µg/mL: 256

compound: C#CCn1cc(C(=O)OCC)c(=O)c2cc(F)c([C-](C#N)C(=O)OCC)cc21.[Na+] (stereo not drawn)
MIC, µg/mL: 8

compound: CCOC(=O)c1cn(Cc2cccc(Cl)c2)c2cc([C-](C#N)C(=O)OCC)c(F)cc2c1=O.[Na+] (stereo not drawn)
MIC, µg/mL: 2

[in] Which MIC reading was recorded for the compound CCOC(=O)c1cn(CC2CCC2)c2cc([C-](C#N)C(=O)OCC)c(F)cc2c1=O.[Na+] (stereo not drawn) ?
[out] 2

[in] Can you handle CCOC(=O)c1cn(Cc2ccccn2)c2cc(F)c(F)cc2c1=O next?
[out] 64

[in] Repeat for the following compound: CCOC(=O)c1cn(CC2CCCCC2)c2cc(C(C#N)C(=O)OCC)c(F)cc2c1=O (stereo not drawn)
[out] 0.5

[in] Request: CCOC(=O)c1cn(Cc2cccc(Cl)c2)c2cc(F)c(F)cc2c1=O
[out] 64

[in] Repeat for the following compound: CCn1cc(C(=O)O)c(=O)c2cc(F)c(N3CCNCC3)cc21
[out] 4

[in] Proceed to CCOC(=O)c1cn(Cc2ccccc2Cl)c2cc([C-](C#N)C(=O)OCC)c(F)cc2c1=O.[Na+] (stereo not drawn)
[out] 2

[in] What do we get for CCOC(=O)c1cn(Cc2ccc(Cl)cc2Cl)c2cc([C-](C#N)C(=O)OCC)c(F)cc2c1=O.[Na+] (stereo not drawn) ?
[out] 0.25

[in] Note, next up: CCOC(=O)C(C#N)c1cc2c(cc1F)c(=O)c(C(=O)O)cn2CC=C(C)C (stereo not drawn)
[out] 1

[in] Please do the same for CCOC(=O)c1cn(Cc2ccc(Cl)cc2)c2cc([C-](C#N)C(=O)OCC)c(F)cc2c1=O.[Na+] (stereo not drawn) as well.
[out] 1

[in] For NC1CCN(c2c(F)cc3c(=O)c(C(=O)O)cn(C4CC4)c3c2Cl)C1 (stereo not drawn) then?
[out] 0.25

[in] Please answer likewise for CCOC(=O)c1cn(Cc2cnc(Cl)s2)c2cc(F)c(F)cc2c1=O
[out] 32

[in] Same lookup for CCOC(=O)c1cn(CC(N)=O)c2cc(F)c(F)cc2c1=O , please.
[out] 32

[in] Next entry: CCCCCn1cc(C(=O)OCC)c(=O)c2cc(F)c(F)cc21
[out] 64

[in] Cool, now CCOC(=O)c1cn(CC(=O)N2CCCCC2)c2cc([C-](C#N)C(=O)OCC)c(F)cc2c1=O.[Na+] (stereo not drawn)
[out] 64

[in] Again, but for CCOC(=O)c1cn(Cc2ccc([N+](=O)[O-])cc2)c2cc(F)c(F)cc2c1=O
[out] 128

[in] Similarly, CCOC(=O)c1cn2c3c(c(F)c(F)cc3c1=O)OC[C@@H]2C ?
[out] 128

[in] Now the same for CCOC(=O)C(C#N)c1cc2c(cc1F)c(=O)c(C(=O)O)cn2Cc1ccc(Cl)c(Cl)c1 (stereo not drawn)
[out] 0.5

[in] Similarly, CCOC(=O)c1cn(CC(=O)N2CCCCC2)c2cc(F)c(F)cc2c1=O ?
[out] 64

====

- procedureSummary: MRT (0 to t) in mouse at 10 mg/kg, iv
- Assay type: ADME, organism-based
- condition: in vivo
parameter: MRT last (min)
Please reply with the bare figure in min and do not write the unit itself.

[in] Data request, read-out MRT last, for CCCCCCCCn1cc(C(=O)OCC)c(=O)c2cc(F)c([C-](C#N)C(=O)OCC)cc21.[Na+] (stereo unspecified)
[out] 9

====

- Tested on: Staphylococcus aureus
- procedureSummary: Antibacterial activity against Staphylococcus aureus assessed growth inhibition by micro broth dilution method
- Format: functional
parameter: MIC (µg/mL)
Respond with the bare value in µg/mL.

Some solved entries appear below for comparison.
compound: CCOC(=O)C(C#N)c1cc2c(cc1F)c(=O)c(C(=O)O)cn2Cc1ccc(Cl)cc1Cl (stereo not given)
MIC (µg/mL): 1
--
compound: CCOC(=O)c1cn(CC2CC2)c2cc(F)c(F)cc2c1=O
MIC (µg/mL): 128
--
compound: CCOC(=O)c1cn(Cc2ccccc2Cl)c2cc(F)c(F)cc2c1=O
MIC (µg/mL): 128
--
compound: CCn1cc(C(=O)O)c(=O)c2cc(F)c(N3CCNCC3)cc21
MIC (µg/mL): 8

API: the following record is the query input.
[in] Any idea what MIC was measured for CCOC(=O)c1cn(Cc2ccc(C)cc2)c2cc(F)c(F)cc2c1=O ?
[out] 64

====

- procedureSummary: MRT (0 to t) in mouse at 10 mg/kg, po
- Type: ADME, organism-based
- condition: in vivo
parameter: MRT last (h)
// note: answer is a bare numeric in h

[in] Consider the molecule shown here: CCCCCCCCn1cc(C(=O)OCC)c(=O)c2cc(F)c([C-](C#N)C(=O)OCC)cc21.[Na+] (stereo unspecified) What is its recorded MRT last?
[out] 2.69

====

Reported values of MIC for individual entries
- Test system: Klebsiella pneumoniae
- procedureSummary: Antibacterial activity against Klebsiella pneumonia assessed growth inhibition by micro broth dilution method
- Format: functional
Unit µg/mL implied. Number only.

Below: 5 compounds and their reported MIC.
compound: CCn1cc(C(=O)O)c(=O)c2cc(F)c(N3CCNCC3)cc21
unitTag: µg/mL
MIC: 8
//
compound: CCOC(=O)c1cn(CCN2CCOCC2)c2cc([C-](C#N)C(=O)OCC)c(F)cc2c1=O.[Na+] (stereo not drawn)
unitTag: µg/mL
MIC: 256
//
compound: CCOC(=O)c1cn(C2CC2)c2cc([C-](C#N)C(=O)OCC)c(F)cc2c1=O.[Na+] (stereo not drawn)
unitTag: µg/mL
MIC: 16
//
compound: CCCCCCn1cc(C(=O)OCC)c(=O)c2cc(F)c([C-](C#N)C(=O)OCC)cc21.[Na+] (stereo not drawn)
unitTag: µg/mL
MIC: 1
//
compound: CCOC(=O)c1cn(Cc2ccccc2)c2cc([C-](C#N)C(=O)OCC)c(F)cc2c1=O.[Na+] (stereo not drawn)
unitTag: µg/mL
MIC: 4

[in] # lookup: MIC of NC1CCN(c2c(F)cc3c(=O)c(C(=O)O)cn(C4CC4)c3c2Cl)C1 (stereo not drawn)
[out] 0.5

[in] // query: CCCCCCn1cc(C(=O)OCC)c(=O)c2cc(F)c(F)cc21
[out] 64

[in] Try the compound CCOC(=O)c1cn(CCN2CCOCC2)c2cc(F)c(F)cc2c1=O
[out] 256

[in] Moving on to CCOC(=O)c1cn(Cc2ccccc2Cl)c2cc(F)c(F)cc2c1=O
[out] 32

[in] Repeat with CCOC(=O)c1cn2c3c(c([C-](C#N)C(=O)OCC)c(F)cc3c1=O)OC[C@@H]2C.[Na+] (stereo partly drawn)
[out] 256

[in] Try this compound too: CCOC(=O)C(C#N)c1cc2c(cc1F)c(=O)c(C(=O)O)cn2Cc1ccc(Cl)c(Cl)c1 (stereo not drawn)
[out] 4

[in] Another compound to look at: CCOC(=O)c1cn(Cc2ccccc2Cl)c2cc([C-](C#N)C(=O)OCC)c(F)cc2c1=O.[Na+] (stereo not drawn)
[out] 4

[in] Same again, this time with CCOC(=O)C(C#N)c1cc2c(cc1F)c(=O)c(C(=O)O)cn2Cc1ccc(Cl)cc1Cl (stereo not drawn)
[out] 0.25

[in] Same lookup for CCOC(=O)c1cn2c3c(c(F)c(F)cc3c1=O)OC[C@@H]2C , please.
[out] 32

[in] Try this compound next: CCOC(=O)c1cn(Cc2ccc(Cl)c(Cl)c2)c2cc(C(C#N)C(=O)OCC)c(F)cc2c1=O (stereo not drawn)
[out] 1

[in] One more compound: CCCCn1cc(C(=O)OCC)c(=O)c2cc(F)c([C-](C#N)C(=O)OCC)cc21.[Na+] (stereo not drawn)
[out] 16

[in] Another compound to check: CCCCCCCCn1cc(C(=O)OCC)c(=O)c2cc(F)c([C-](C#N)C(=O)OCC)cc21.[Na+] (stereo not drawn)
[out] 0.25

[in] Entry CCOC(=O)c1cn(Cc2ccc(Cl)cc2Cl)c2cc(F)c(F)cc2c1=O please
[out] 0.5

[in] What do you get for CCOC(=O)c1cn(CC)c2cc(F)c(F)cc2c1=O ?
[out] 64

[in] Please give the result for CCOC(=O)c1cn(CC)c2c(F)c(F)c(F)cc2c1=O too.
[out] 32

[in] Same again, this time with CCOC(=O)c1cn(Cc2ccc(F)cc2F)c2cc(C(C#N)C(=O)OCC)c(F)cc2c1=O (stereo not drawn)
[out] 4

[in] Try CCOC(=O)c1cn(Cc2ccc(C)cc2)c2cc([C-](C#N)C(=O)OCC)c(F)cc2c1=O.[Na+] (stereo not drawn) next.
[out] 2
